src = ChEMBL document CHEMBL4665641

Target: CYP3A4 (Homo sapiens)
Sequence (P08684 whole entry): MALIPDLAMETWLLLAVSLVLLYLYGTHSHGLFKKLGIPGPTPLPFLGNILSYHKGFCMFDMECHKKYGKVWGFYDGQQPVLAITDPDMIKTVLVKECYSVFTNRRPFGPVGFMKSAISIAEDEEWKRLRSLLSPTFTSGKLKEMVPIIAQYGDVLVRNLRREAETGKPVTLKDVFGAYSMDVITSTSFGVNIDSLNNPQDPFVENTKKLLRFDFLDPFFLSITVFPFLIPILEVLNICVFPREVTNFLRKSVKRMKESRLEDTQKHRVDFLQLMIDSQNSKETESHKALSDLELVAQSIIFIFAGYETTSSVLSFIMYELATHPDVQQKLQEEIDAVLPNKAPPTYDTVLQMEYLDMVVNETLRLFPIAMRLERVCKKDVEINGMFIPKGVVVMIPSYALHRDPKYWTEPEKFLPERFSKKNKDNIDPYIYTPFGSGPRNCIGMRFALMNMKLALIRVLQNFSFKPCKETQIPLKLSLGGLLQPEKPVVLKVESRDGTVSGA
Assay: Inhibition of human CYP3A4 at 10 uM using testosterone as substrate relative to control
Assay type: ADME
Details: probe testosterone
Measurement type: inhibition at 10 µM

Input: Using the record for "Cc1noc(C)c1-c1ccc2nc(-c3cnn(CC(C)(C)O)c3)nc(N3CCOC[C@@H]3c3ccccc3)c2c1" , state its measured inhibition at 10 µM.
Output: < 50%

----------
Each entry below carries its reported Cmax.
Assay: Cmax in CD-1 mouse at 2 mg/kg, iv measured after 5 mins
Type: ADME, organism-based
Parameters: route intravenous, dose 2 mg/kg
Conditions: CD-1, mouse, in vivo, read-out: Cmax
Response body: numeric value in ng/mL, unit text excluded.

Recorded results for 5 compounds are shown here.
smi=Cc1noc(C)c1-c1ccc2nc(-c3cnn(CC(C)(C)O)c3)nc(N3CCN(S(C)(=O)=O)C[C@@H]3c3ccccc3)c2c1 readout_value=2580
smi=Cc1cc(-c2ccc3nc(-c4cnn(CC(C)(C)O)c4)nc(N4CCOC[C@@H]4c4ccccc4)c3c2)cn(C)c1=O readout_value=2450
smi=Cn1cc(-c2ccc3nc(-c4cnn(CC(C)(C)O)c4)nc(N4CCOC[C@@H]4c4cccs4)c3c2)ccc1=O readout_value=2040
smi=Cc1noc(C)c1-c1ccc2nc(-c3cnn(CC(C)(C)O)c3)nc(N3CCOC[C@@H]3c3cccs3)c2c1 readout_value=1580
smi=Cc1cc(-c2ccc3nc(-c4cnn(CC(C)(C)O)c4)nc(N4CCOC[C@@H]4c4ccc(F)cc4)c3c2)cn(C)c1=O readout_value=2260

Input: Using the record for "Cc1noc(C)c1-c1ccc2nc(-c3cnn(CC(C)(C)O)c3)nc(N3CCOC[C@@H]3c3ccc(F)cc3)c2c1" , state its measured Cmax.
Output: 1590

Input: Using the record for "Cc1noc(C)c1-c1ccc2nc(-c3cnn(CC(C)(C)O)c3)nc(N3CCOC[C@@H]3c3ccc(Cl)cc3)c2c1" , state its measured Cmax.
Output: 1800

Input: Using the record for "CC(=O)N1CCN(c2nc(-c3cnn(CC(C)(C)O)c3)nc3ccc(-c4c(C)noc4C)cc23)[C@@H](c2ccccc2)C1" , state its measured Cmax.
Output: 2450

Input: Using the record for "Cn1cc(-c2ccc3nc(-c4cnn(CC(C)(C)O)c4)nc(N4CCOC[C@@H]4c4ccccc4)c3c2)ccc1=O" , state its measured Cmax.
Output: 1860

----------
Test: AUC(0 to infinity) in CD-1 mouse at 10 mg/kg, po
Assay type: ADME, organism-based
Design: route oral, time infinity, dose 10 mg/kg
Conditions: CD-1, mouse, in vivo
Each entry below carries its reported AUC(0-inf).
Response body: numeric value in µg·h/mL, unit text excluded.

Recorded results for 5 compounds are shown here.
smi=Cc1noc(C)c1-c1ccc2nc(-c3cnn(CC(C)(C)O)c3)nc(N3CCOC[C@@H]3c3ccc(F)cc3)c2c1 readout_value=26.1
smi=Cc1noc(C)c1-c1ccc2nc(-c3cnn(CC(C)(C)O)c3)nc(N3CCOC[C@@H]3c3ccc(Cl)cc3)c2c1 readout_value=12.6
smi=CC(=O)N1CCN(c2nc(-c3cnn(CC(C)(C)O)c3)nc3ccc(-c4c(C)noc4C)cc23)[C@@H](c2ccccc2)C1 readout_value=21.9
smi=Cn1cc(-c2ccc3nc(-c4cnn(CC(C)(C)O)c4)nc(N4CCOC[C@@H]4c4cccs4)c3c2)ccc1=O readout_value=22.9
smi=Cc1noc(C)c1-c1ccc2nc(-c3cnn(CC(C)(C)O)c3)nc(N3CCN(S(C)(=O)=O)C[C@@H]3c3ccccc3)c2c1 readout_value=21.2

Input: Using the record for "Cc1noc(C)c1-c1ccc2nc(-c3cnn(CC(C)(C)O)c3)nc(N3CCOC[C@@H]3c3cccs3)c2c1" , state its measured AUC(0-inf).
Output: 17.7

Input: Using the record for "Cn1cc(-c2ccc3nc(-c4cnn(CC(C)(C)O)c4)nc(N4CCOC[C@@H]4c4ccccc4)c3c2)ccc1=O" , state its measured AUC(0-inf).
Output: 16.1

Input: Using the record for "Cc1cc(-c2ccc3nc(-c4cnn(CC(C)(C)O)c4)nc(N4CCOC[C@@H]4c4ccc(F)cc4)c3c2)cn(C)c1=O" , state its measured AUC(0-inf).
Output: 45.7

Input: Using the record for "Cc1cc(-c2ccc3nc(-c4cnn(CC(C)(C)O)c4)nc(N4CCOC[C@@H]4c4ccccc4)c3c2)cn(C)c1=O" , state its measured AUC(0-inf).
Output: 39.8

----------
Target: Bromodomain-containing protein 4 (Homo sapiens, UniProt O60885)
Experiment: Competitive binding affinity to human partial length BRD4 (BD1,2) (N44 to E460 residues) expressed in bacterial expression system by BROMOscan assay
Each entry below carries its reported log10 Kd.
In our notation, the value equals log10 of Kd in nM.

smi=Cc1noc(C)c1-c1ccc2nc(-c3cnn(CC(C)(C)O)c3)nc(N3CCOC[C@@H]3C3CCCCC3)c2c1 readout_value=2.09
smi=Cc1noc(C)c1-c1ccc2nc(-c3cnn(CC(C)(C)O)c3)nc(N3CCN(S(C)(=O)=O)C[C@@H]3c3ccccc3)c2c1 readout_value=1.83

Input: GET log10 Kd | system: Bromodomain-containing protein 4 (Homo sapiens, UniProt O60885) | item: "Cc1noc(C)c1-c1ccc2nc(-c3cnn(CC(C)(C)O)c3)nc(N3CCOC[C@@H]3C3CCC3)c2c1"
Output: 2.29

Input: GET log10 Kd | system: Bromodomain-containing protein 4 (Homo sapiens, UniProt O60885) | item: "Cc1noc(C)c1-c1ccc2nc(-c3cnn(CC(C)(C)O)c3)nc(N3CCOC[C@@H]3c3ccccc3)c2c1"
Output: 1.85

Input: GET log10 Kd | system: Bromodomain-containing protein 4 (Homo sapiens, UniProt O60885) | item: "Cc1noc(C)c1-c1ccc2nc(-c3cnn(CC(C)(C)O)c3)nc(N3CCOC[C@@H]3c3ccc(F)cc3)c2c1"
Output: 1.76

Input: GET log10 Kd | system: Bromodomain-containing protein 4 (Homo sapiens, UniProt O60885) | item: "Cc1noc(C)c1-c1ccc2nc(-c3cnn(CC(C)(C)O)c3)nc(N3CCOC[C@@H]3c3ccc(Cl)cc3)c2c1"
Output: 2.48

Input: GET log10 Kd | system: Bromodomain-containing protein 4 (Homo sapiens, UniProt O60885) | item: "Cc1noc(C)c1-c1ccc2nc(-c3cnn(C(C)(C)CO)c3)nc(N3CCOC[C@@H]3c3ccccc3)c2c1"
Output: 1.94

Input: GET log10 Kd | system: Bromodomain-containing protein 4 (Homo sapiens, UniProt O60885) | item: "CNC(=O)Cn1cc(-c2nc(N3CCOC[C@@H]3c3ccccc3)c3cc(-c4c(C)noc4C)ccc3n2)cn1"
Output: 1.93

Input: GET log10 Kd | system: Bromodomain-containing protein 4 (Homo sapiens, UniProt O60885) | item: "CC(=O)N1CCN(c2nc(-c3cnn(CC(C)(C)O)c3)nc3ccc(-c4c(C)noc4C)cc23)[C@@H](c2ccccc2)C1"
Output: 1.91

Input: GET log10 Kd | system: Bromodomain-containing protein 4 (Homo sapiens, UniProt O60885) | item: "Cn1cc(-c2ccc3nc(-c4cnn(CC(C)(C)O)c4)nc(N4CCOC[C@@H]4C4CCCCC4)c3c2)ccc1=O"
Output: 1.40

Input: GET log10 Kd | system: Bromodomain-containing protein 4 (Homo sapiens, UniProt O60885) | item: "Cc1cc(-c2ccc3nc(-c4cnn(CC(C)(C)O)c4)nc(N4CCOC[C@@H]4c4ccccc4)c3c2)cn(C)c1=O"
Output: 1.36

Input: GET log10 Kd | system: Bromodomain-containing protein 4 (Homo sapiens, UniProt O60885) | item: "Cn1cc(-c2ccc3nc(-c4cnn(CC(C)(C)O)c4)nc(N4CCOC[C@@H]4c4ccccc4)c3c2)ccc1=O"
Output: 1.84

----------
Molecular target: Bromodomain-containing protein 2 (Homo sapiens)
Sequence (P25440 whole entry, the tested form may be a part): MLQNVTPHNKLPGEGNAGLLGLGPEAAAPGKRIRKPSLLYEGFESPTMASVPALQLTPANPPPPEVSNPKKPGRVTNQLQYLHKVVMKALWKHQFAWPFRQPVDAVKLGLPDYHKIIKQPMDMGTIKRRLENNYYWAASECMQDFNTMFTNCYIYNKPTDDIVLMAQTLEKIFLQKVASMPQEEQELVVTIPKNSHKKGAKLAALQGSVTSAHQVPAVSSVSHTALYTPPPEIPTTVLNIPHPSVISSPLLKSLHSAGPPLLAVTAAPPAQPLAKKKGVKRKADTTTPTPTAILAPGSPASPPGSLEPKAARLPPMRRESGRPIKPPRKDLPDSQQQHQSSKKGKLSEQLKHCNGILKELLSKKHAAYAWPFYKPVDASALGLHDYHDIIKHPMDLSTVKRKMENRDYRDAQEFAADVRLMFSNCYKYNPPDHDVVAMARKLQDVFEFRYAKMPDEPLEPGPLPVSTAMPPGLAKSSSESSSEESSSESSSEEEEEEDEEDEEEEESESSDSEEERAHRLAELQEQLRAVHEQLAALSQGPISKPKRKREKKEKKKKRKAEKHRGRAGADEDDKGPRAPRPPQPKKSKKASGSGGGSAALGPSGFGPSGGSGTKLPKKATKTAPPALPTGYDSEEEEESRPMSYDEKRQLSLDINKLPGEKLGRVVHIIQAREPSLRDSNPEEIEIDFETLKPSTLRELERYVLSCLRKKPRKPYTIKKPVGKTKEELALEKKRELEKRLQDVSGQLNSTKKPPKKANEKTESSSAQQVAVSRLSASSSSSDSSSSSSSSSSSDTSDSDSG
Assay: Binding affinity to human partial length BRD2 (BD2) (E348 to D455 residues) expressed in bacterial expression system by BROMOscan assay
Measurement type: pKd
The value called pKd is obtained by taking minus log10 of the concentration in mol/L.

Input: Using the record for "Cc1noc(C)c1-c1ccc2nc(-c3cnn(CC(C)(C)O)c3)nc(N3CCOC[C@@H]3c3ccccc3)c2c1" , state its measured pKd.
Output: 6.70

----------
Assay: Half life in CD-1 mouse at 2 mg/kg, iv
Type: ADME, organism-based
Conditions: in vivo
Measurement type: half-life

Recorded results for 2 compounds are shown here.
smi=Cn1cc(-c2ccc3nc(-c4cnn(CC(C)(C)O)c4)nc(N4CCOC[C@@H]4c4cccs4)c3c2)ccc1=O readout_value="2.3 h"
smi=Cc1noc(C)c1-c1ccc2nc(-c3cnn(CC(C)(C)O)c3)nc(N3CCN(S(C)(=O)=O)C[C@@H]3c3ccccc3)c2c1 readout_value="1.4 h"

Input: Using the record for "CC(=O)N1CCN(c2nc(-c3cnn(CC(C)(C)O)c3)nc3ccc(-c4c(C)noc4C)cc23)[C@@H](c2ccccc2)C1" , state its measured half-life.
Output: 1.5 h

Input: Using the record for "Cc1noc(C)c1-c1ccc2nc(-c3cnn(CC(C)(C)O)c3)nc(N3CCOC[C@@H]3c3cccs3)c2c1" , state its measured half-life.
Output: 1.4 h
